Ratio overview
- PROTOCOL: Uptake ratio Ki of dopamine relative to serotonin (5-HT) at monoamine transporter
READOUT KIND: Ratio

INSERT INTO measurements (molecule, value_qualifier, data_value) VALUES
  ('COC(=O)C1C2CC3CCC1N3C/C2=C\c1cc(Cl)cc(Cl)c1 (centres undefined)', '=', 12.8),
  ('CNC(=O)C1C2CC3CCC1N3C/C2=C\c1ccc(Cl)c(Cl)c1 (centres undefined)', '=', 127),
  ('O=C(CCCCCCCCCC(=O)OCC1C2CC3CCC1N3C/C2=C\c1ccc(Cl)c(Cl)c1)OCC1C2CC3CCC1N3C/C2=C\c1ccc(Cl)c(Cl)c1 (centres undefined)', '>', 1170),
  ('O=C(OCC1C2CC3CCC1N3C/C2=C\c1ccc2ccccc2c1)c1ccccc1 (centres undefined)', '=', 55300);
